Data provenance is patent US20220025023A1.

molecular target: T1, BSA (bovine, UniProt P02769); test: indirect ELISA, control coat in the 15-mer series, hybridoma supernatant
T1 construct: not specified; also called bovine serum albumin
T1 sequence (P02769 25-607 limits assumed): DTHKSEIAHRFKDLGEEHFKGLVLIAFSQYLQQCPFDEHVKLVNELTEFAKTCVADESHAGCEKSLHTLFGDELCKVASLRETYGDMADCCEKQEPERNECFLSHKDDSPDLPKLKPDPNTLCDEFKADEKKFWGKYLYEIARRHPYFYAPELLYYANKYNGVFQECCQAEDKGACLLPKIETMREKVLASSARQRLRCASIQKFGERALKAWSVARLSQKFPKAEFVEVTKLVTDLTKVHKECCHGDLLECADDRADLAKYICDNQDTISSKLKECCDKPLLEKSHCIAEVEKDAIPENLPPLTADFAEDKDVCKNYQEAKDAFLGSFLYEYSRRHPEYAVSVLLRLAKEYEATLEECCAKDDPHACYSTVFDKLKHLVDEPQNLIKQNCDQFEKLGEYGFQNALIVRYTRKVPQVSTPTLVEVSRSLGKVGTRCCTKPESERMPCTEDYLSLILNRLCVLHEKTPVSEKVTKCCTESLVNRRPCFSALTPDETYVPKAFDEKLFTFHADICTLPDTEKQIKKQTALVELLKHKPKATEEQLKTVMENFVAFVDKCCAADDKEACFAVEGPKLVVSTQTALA

{"BINDER": "ACI-7062-415C4-Ab1 (antibody, IgG1, V domains shown, also called 415C4C6; clone 14) VH: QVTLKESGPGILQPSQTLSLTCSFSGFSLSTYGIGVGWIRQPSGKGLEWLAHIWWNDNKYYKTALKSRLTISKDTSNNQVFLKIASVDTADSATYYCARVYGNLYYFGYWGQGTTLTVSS VL: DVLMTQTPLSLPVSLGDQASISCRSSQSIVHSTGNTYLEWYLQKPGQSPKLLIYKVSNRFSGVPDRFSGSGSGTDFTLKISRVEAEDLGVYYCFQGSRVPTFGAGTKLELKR", "binding result": "no binding"}
{"BINDER": "ACI-7062-404D6-Ab2 (antibody, IgG3, V domains shown, also called 404D6E11; clone 4) VH: QVTLKESGPGILQPSQTLSLTCSFSGFSLSTYGIGVGWIRQPSGKGLEWLAHIWWNDYKYYNTALKSRLTISKDTSNNRVFLKIASVDTADTATYYCARVYGNLYYFDYWGQGTTLTVSS VL: DVLMTQTPLSLPVSLGDQASISCRSSQSIVHGSGNTYLEWYLQKPGQSPKLLIYKVSNRFSGVPDRFSGSGSGTDFTLRISRVEAEDLGVYYCFQGSHVPTFGAGTKLELKR", "binding result": "no binding"}
{"BINDER": "ACI-7062-401A2-Ab2 (antibody, IgG1, V domains shown, also called 401A2C6; clone 2) VH: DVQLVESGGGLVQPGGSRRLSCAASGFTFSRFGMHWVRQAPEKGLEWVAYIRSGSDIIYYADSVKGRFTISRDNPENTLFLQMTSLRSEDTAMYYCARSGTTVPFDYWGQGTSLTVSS VL: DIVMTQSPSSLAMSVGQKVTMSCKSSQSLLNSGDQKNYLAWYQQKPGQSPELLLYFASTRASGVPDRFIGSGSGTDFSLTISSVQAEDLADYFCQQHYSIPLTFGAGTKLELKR", "binding result": "no binding"}
